All figures here come from ChEMBL document CHEMBL4673260.

- ASSAYED_TARGET: Glutamate [NMDA] receptor
- ASSAY_COMMENT: Displacement of [3H]nicotine from NMDA receptor (unknown origin)
ATTRIBUTE_MEASURED: IC50

Task item: Dear colleague, please send me the reported IC50 for `CN(C)CC/C=C/c1cccnc1` when you can.
Reply: > 10 µM

====

- ASSAY_COMMENT: Toxicity in ip dosed albino rat
- Format: organism-based
- ASSAY_CONTEXT: in vivo
ATTRIBUTE_MEASURED: LD50 (mg/kg)
Numbers only, in mg/kg.

Task item: Dear colleague, please send me the reported LD50 for `C=Cc1cncc2c1CCOC2=O` when you can.
Reply: 276
